Biological target: T1, Factor VIIIa (recombinant FVIII, Kogenate FS, activated with alpha-thrombin) (UniProt P00451 20-2351)
T1 construct: also called FVIIIa
T1 sequence (looked up): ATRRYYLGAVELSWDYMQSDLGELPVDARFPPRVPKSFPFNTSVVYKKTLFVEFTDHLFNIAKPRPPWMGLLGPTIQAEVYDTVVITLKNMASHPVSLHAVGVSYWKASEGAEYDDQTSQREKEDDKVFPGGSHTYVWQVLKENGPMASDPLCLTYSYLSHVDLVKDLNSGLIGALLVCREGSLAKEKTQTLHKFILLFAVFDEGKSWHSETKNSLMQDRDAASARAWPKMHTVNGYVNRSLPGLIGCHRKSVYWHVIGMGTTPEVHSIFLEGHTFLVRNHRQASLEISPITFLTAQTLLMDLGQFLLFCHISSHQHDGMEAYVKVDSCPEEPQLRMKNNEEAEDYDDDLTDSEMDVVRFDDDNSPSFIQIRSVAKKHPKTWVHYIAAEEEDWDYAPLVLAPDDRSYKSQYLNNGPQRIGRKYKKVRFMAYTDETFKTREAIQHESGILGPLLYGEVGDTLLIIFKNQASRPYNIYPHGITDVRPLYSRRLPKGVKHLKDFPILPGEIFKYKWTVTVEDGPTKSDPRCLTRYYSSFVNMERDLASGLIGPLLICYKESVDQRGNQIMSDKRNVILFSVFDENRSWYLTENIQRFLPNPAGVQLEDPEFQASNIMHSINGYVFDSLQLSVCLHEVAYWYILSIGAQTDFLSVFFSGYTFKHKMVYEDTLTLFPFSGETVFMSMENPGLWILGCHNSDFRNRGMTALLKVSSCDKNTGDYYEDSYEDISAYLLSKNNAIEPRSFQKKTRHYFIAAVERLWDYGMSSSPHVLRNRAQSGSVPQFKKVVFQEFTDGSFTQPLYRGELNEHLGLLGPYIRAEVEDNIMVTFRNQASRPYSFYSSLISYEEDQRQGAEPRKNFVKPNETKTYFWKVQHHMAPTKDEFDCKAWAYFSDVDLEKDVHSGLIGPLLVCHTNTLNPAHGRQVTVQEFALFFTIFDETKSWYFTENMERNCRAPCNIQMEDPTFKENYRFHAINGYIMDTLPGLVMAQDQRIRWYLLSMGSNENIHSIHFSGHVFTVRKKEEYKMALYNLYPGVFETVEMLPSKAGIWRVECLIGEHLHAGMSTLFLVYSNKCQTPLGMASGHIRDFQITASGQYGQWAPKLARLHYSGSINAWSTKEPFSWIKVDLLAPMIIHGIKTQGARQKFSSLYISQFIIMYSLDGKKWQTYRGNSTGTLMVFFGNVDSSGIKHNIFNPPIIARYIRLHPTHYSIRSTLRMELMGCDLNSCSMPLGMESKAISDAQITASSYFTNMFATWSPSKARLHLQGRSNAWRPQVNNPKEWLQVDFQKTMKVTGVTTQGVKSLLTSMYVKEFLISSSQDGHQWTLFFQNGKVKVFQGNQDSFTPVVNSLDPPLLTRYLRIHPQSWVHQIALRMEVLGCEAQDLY
Assay: functional cofactor affinity KD-app: fluorogenic FX activation (Xase) assay, FVIIIa titrated, PC/PS vesicles, saturating FX
Catalogue of pKd readings, one per entry.
// returns pKd (minus log10 of molar concentration), number only

binder: FIXa-K228N/K247N/N249S/R318Y/R338E/T343R/R403E/E410N (enzyme, also called K63N/K82N/N84S/R150Y/R170E/T175R/R233E/E240N (chymotrypsin numbering)) chain 1: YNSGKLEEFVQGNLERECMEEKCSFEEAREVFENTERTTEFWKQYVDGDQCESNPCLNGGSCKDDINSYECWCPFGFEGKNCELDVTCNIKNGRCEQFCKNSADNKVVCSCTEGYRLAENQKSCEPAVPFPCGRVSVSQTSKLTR chain 2: VVGGEDAKPGQFPWQVVLNGKVDAFCGGSIVNEKWIVTAAHCVETGVNITVVAGEHNIEETEHTEQNRSVIRIIPHHNYNAAINKYNHDIALLELDEPLVLNSYVTPICIADKEYTNIFLKFGSGYVSGWGRVFHKGYSALVLQYLRVPLVDRATCLESTKFRIYNNMFCAGFHEGGRDSCQGDSGGPHVTEVEGTSFLTGIISWGEECAMKGKYGIYTKVSEYVNWIKNKTKLT
pKd: 7.54

Query :: Value lookup for pKd; key = FIXa-Y155F/R318Y/T343R/E410N (enzyme) chain 1: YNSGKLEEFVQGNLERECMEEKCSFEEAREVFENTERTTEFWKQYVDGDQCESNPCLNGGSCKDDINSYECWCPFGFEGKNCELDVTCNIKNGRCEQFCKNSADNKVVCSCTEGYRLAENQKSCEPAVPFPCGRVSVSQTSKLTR chain 2: VVGGEDAKPGQFPWQVVLNGKVDAFCGGSIVNEKWIVTAAHCVETGVKITVVAGEHNIEETEHTEQKRNVIRIIPHHNYNAAINKYNHDIALLELDEPLVLNSYVTPICIADKEYTNIFLKFGSGYVSGWGRVFHKGYSALVLQYLRVPLVDRATCLRSTKFRIYNNMFCAGFHEGGRDSCQGDSGGPHVTEVEGTSFLTGIISWGEECAMKGKYGIYTKVSRYVNWIKNKTKLT
Result :: 7.42
